System: SK-BR-3
test: Cytotoxicity against human SKBR3 cells after 72 hrs by SRB assay
Type: functional, cell-based
experimental-context: sk-br-3
property-measured: IC50 (µM)

{"columns": ["smiles-record", "observed"],
 "data": [
  ["Nc1cccc(Nc2cc(=O)oc3c2ccc2ccccc23)c1", 0.24],
  ["CN(C)c1ccc(Nc2cc(=O)oc3c4c(ccc23)CCCC4)cc1", 0.49],
  ["Nc1cccc(Nc2cc(=O)oc3c4c(ccc23)CCCC4)c1", 0.56],
  ["Nc1ccc(Nc2cc(=O)oc3c2ccc2ccccc23)cc1", 0.053],
  ["CN(C)c1ccc(Nc2cc(=O)oc3c2ccc2ccccc23)cc1", 0.27],
  ["Nc1ccc(Nc2cc(=O)oc3c4c(ccc23)CCCC4)cc1", 0.085]
]}

---

Recorded log10(IC50), one value per entry.
test: Cytotoxicity against human KBVIN cells after 72 hrs by SRB assay
Format: functional, cell-based
experimental-context: kbvin
property-measured: log10(IC50) (log10 of the value in nM)

{"columns": ["smiles-record", "property-measured", "observed"],
 "data": [
  ["Nc1ccc(Nc2cc(=O)oc3c4c(ccc23)CCCC4)cc1", "log10(IC50)", 1.81],
  ["CN(C)c1ccc(Nc2cc(=O)oc3c2ccc2ccccc23)cc1", "log10(IC50)", 2.61],
  ["O=c1cc(NC2CCN(Cc3ccccc3)CC2)c2ccc3c(c2o1)CCCC3", "log10(IC50)", 3.92],
  ["O=c1cc(NC2CCN(Cc3ccccc3)CC2)c2ccc3ccccc3c2o1", "log10(IC50)", 3.97],
  ["Nc1cccc(Nc2cc(=O)oc3c2ccc2ccccc23)c1", "log10(IC50)", 2.18],
  ["Nc1cccc(Nc2cc(=O)oc3c4c(ccc23)CCCC4)c1", "log10(IC50)", 2.65],
  ["CN(C)c1ccc(Nc2cc(=O)oc3c4c(ccc23)CCCC4)cc1", "log10(IC50)", 2.59],
  ["Nc1ccccc1Nc1cc(=O)oc2c3c(ccc12)CCCC3", "log10(IC50)", 3.85],
  ["Nc1ccccc1Nc1cc(=O)oc2c1ccc1ccccc12", "log10(IC50)", 3.95],
  ["Nc1ccc(Nc2cc(=O)oc3c2ccc2ccccc23)cc1", "log10(IC50)", 1.67],
  ["Nc1cccc2c(Nc3cc(=O)oc4c3ccc3ccccc34)cccc12", "log10(IC50)", 2.23]
]}

---

test: Cytotoxicity against human KBVIN cells after 72 hrs by SRB assay
Type: functional, cell-based
experimental-context: Homo sapiens, KBVIN, 72 h
pIC50: −log10 of the molar value.
Entry flag: rule met if pIC50 reaches 7; rule not met if it does not.

{"columns": ["smiles-record", "label-class"],
 "data": [
  ["CN(C)c1ccc(Nc2cc(=O)oc3c4c(ccc23)CCCC4)cc1", "rule not met"],
  ["Nc1ccccc1Nc1cc(=O)oc2c1ccc1ccccc12", "rule not met"],
  ["COc1ccc(Nc2cc(=O)oc3c4c(ccc23)CCCC4)cc1", "rule met"],
  ["O=c1cc(NC2CCN(Cc3ccccc3)CC2)c2ccc3ccccc3c2o1", "rule not met"],
  ["O=c1cc(NC2CCN(Cc3ccccc3)CC2)c2ccc3c(c2o1)CCCC3", "rule not met"],
  ["Nc1ccc(Nc2cc(=O)oc3c2ccc2ccccc23)cc1", "rule met"],
  ["CN(C)c1ccc(Nc2cc(=O)oc3c2ccc2ccccc23)cc1", "rule not met"],
  ["Nc1ccc(Nc2cc(=O)oc3c4c(ccc23)CCCC4)cc1", "rule met"],
  ["Nc1ccccc1Nc1cc(=O)oc2c3c(ccc12)CCCC3", "rule not met"],
  ["Nc1cccc(Nc2cc(=O)oc3c4c(ccc23)CCCC4)c1", "rule not met"]
]}
